# subject.of.test: T1, Mouse EphA2 (Ecto) (Mouse, UniProt Q03145 26-538)
# T1 construct: extracellular domain; Fluorescence polarisation assays; not shown: Fc fusion (R&D Systems 639-A2) or C-terminal polyHis (Sino Biological 50586-M08H)
# assay.text: FP competition vs Reference Compound C (Study 2)

binder	Ki (nM)
AXDCPLVNPLCLHPGWTC (not fully specified; as BCY6014 (N-terminal (β-Ala)-Sar10; HArg; TATA scaffold on the 3 Cys) + DM1-SS-(Me)-, Bicycle drug conjugate (BDC)) [BCY6032]	35.9
AXDCPLVNPLCLHPGWTC (not fully specified; as BCY6014 (N-terminal (β-Ala)-Sar10; HArg; TATA scaffold on the 3 Cys) + Non-cleavable (DM1), Bicycle drug conjugate (BDC)) [BCY6064]	40.7
AXDCPLVNPLCLHPGWTC (not fully specified; as BCY6014 (N-terminal (β-Ala)-Sar10; HArg; TATA scaffold on the 3 Cys) + TrpCit-MMAE, Bicycle drug conjugate (BDC)) [BCY6034]	35.9
AXDCPLVNPLCLHPGWTC (not fully specified; as BCY6014 (N-terminal (β-Ala)-Sar10; HArg; TATA scaffold on the 3 Cys) + DM1-SS-, Bicycle drug conjugate (BDC)) [BCY6031]	35.1
AXDCPLVNPLCLHPGWTC (not fully specified; as BCY6014 (N-terminal (β-Ala)-Sar10; HArg; TATA scaffold on the 3 Cys) + ValCit-MMAE, Bicycle drug conjugate (BDC)) [BCY6033]	34.2
AXDCPLVNPLCLHPGWTC (not fully specified; as BCY6014 (N-terminal (β-Ala)-Sar10; HArg; TATA scaffold on the 3 Cys) + DM1-SS-(Me)-SO3H-, Bicycle drug conjugate (BDC)) [BCY6077]	25.3
AXDCPLVNPLCLHPGWTC (not fully specified; as BCY6014 (N-terminal (β-Ala)-Sar10; HArg; TATA scaffold on the 3 Cys) + DM1-SS(SO3H)-, Bicycle drug conjugate (BDC)) [BCY6082]	34.1
